Data credit: the RNAGym collection of RNA variant scans (doi:10.7554/elife.80360)

B1: HDV Ribozyme (parent)
chain: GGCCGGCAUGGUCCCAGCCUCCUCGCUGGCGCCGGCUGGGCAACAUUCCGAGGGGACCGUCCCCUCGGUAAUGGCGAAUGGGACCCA

# Variants of: B1
# assay.text: self-cleavage, relative activity (ratio to wild type); higher = more cleavage; co-transcriptional
Listed here: items and their measured self-cleavage.
# print the numeric value only

Below, each entry is followed by its recorded self-cleavage result.
{"columns": ["seq", "assay.result"],
 "data": [
  ["GGCCGGAAUGGUCCCAGCCUCCUCGCUGGCGCGGGCUGGGCAACAUUCCGAGGGGACCGUCCCCUCGGUAAUGGCGAAUGGGACCCA", 0.0519],
  ["GGCCGGCAUGGUCCCAGCCUCCUCGCUGGCGCCGGCUGGGCAAGAUUCCGAGGGGACCGUCCCCUCGGUAAUGGCGAAUGGGACCCU", 0.675],
  ["GGCCGGCAUGGACCCAGCCUCCUCGCUGGCGCCGGCUGGGCAACAUUCCGAGGGGACCGUCCACUCGGUAAUGGCGAAUGGGACCCA", 0.519]
]}

Form: variant = GGCCGGCGUGGUCCCAGCCUCCUCGCUGGCGCCGGCUGGGCAACAUUCCGAGGGGACCGUCUCCUCGGUAAUGGCGAAUGGGACCCA ; self-cleavage = 0.95

Form: variant = GGCCGGCAUGGUCCCAGCCUCCUCGUUGGCGCCGGCUGGGCAACAUUCCGAGGGGACCGUCCCCUCGGUAAUGGCGAAUUGGACCCA ; self-cleavage = 0.433

Form: variant = GGCCGGCAUGAUCCCAGCCUCCUCGCUGGCGCCCGCUGGGCAACAUUCCGAGGGGACCGUCCCCUCGGUAAUGGCGAAUGGGACCCA ; self-cleavage = 0.0378

Form: variant = GGCCGGCAUGGUCCCAGCCUCUUCGCUGGCGCCGGCUGGGCAACAUUCCGAGGGGACCGUCCCCUCGGUAAUGCCGAAUGGGACCCA ; self-cleavage = 0.157

Form: variant = GGCCGGCAUGGUCCCAGCCACCUCGCUGGCGCCGGCUGGGCAACAUUCCGAGGGGACCGUCUCCUCGGUAAUGGCGAAUGGGACCCA ; self-cleavage = 0.0475

Form: variant = GGCCGGCAUGGUCCCAGCCUCCUCGCUGGCGCCGGGUGAGCAACAUUCCGAGGGGACCGUCCCCUCGGUAAUGGCGAAUGGGACCCA ; self-cleavage = 0.0326
